# assayed target: recombinant human His-ATG7 enzyme (Homo sapiens (Human))
# method summary: ATG7 Enzyme Assay (HTRF/FRET, ATG3-GST and Flag-Gabarap)
Measured IC50, listed per entry.

[
  {
    "molecule": "Cc1cccc(Sc2nn([C@H]3C[C@H](O)[C@@H](COS(N)(=O)=O)O3)c3ncnc(N)c23)c1 [Compound I-205]",
    "assayed target": "recombinant human His-ATG7 enzyme (Homo sapiens (Human))",
    "IC50": "50 to 100 nM"
  }
]

stdin: Need IC50 of Nc1ncnc2c1cnn2[C@@H]1O[C@H](COS(N)(=O)=O)[C@@H](O)[C@H]1O [Compound I-48] , thanks.
stdout: 100 to 500 nM

stdin: Also, Cc1ccc(CSc2nn([C@@H]3O[C@H](COS(N)(=O)=O)[C@@H](O)[C@H]3O)c3ncnc(N)c23)cc1 [Compound I-41] please.
stdout: 20 to 50 nM

stdin: Also, CC1OCCC1Sc1nn([C@@H]2O[C@H](COS(N)(=O)=O)[C@@H](O)[C@H]2O)c2ncnc(N)c12 (stereo partly shown) [Compound I-92] please.
stdout: 100 to 500 nM

stdin: Also, Nc1ncnc2c1c(Sc1ccc(Cl)cc1)nn2[C@@H]1O[C@H](COS(N)(=O)=O)[C@@H](O)[C@H]1O [Compound I-64] please.
stdout: 20 to 50 nM

stdin: Also, Nc1ncnc2c1c(Sc1ccc3ccccc3c1)nn2[C@H]1C[C@H](O)[C@H](COS(N)(=O)=O)O1 [Compound I-210] please.
stdout: 100 to 500 nM

stdin: Also, CC(O)c1nn([C@@H]2O[C@H](COS(N)(=O)=O)[C@@H](O)[C@H]2O)c2ncnc(N)c12 (single isomer, unassigned) [Compound I-23a] please.
stdout: > 500 nM

###

# assayed target: recombinant human His-ATG7 enzyme (Homo sapiens (Human))
# method summary: ATG7 Enzyme Assay (HTRF/FRET, ATG3-GST and Flag-Gabarap)
parameter: IC50

The cases that follow already have their IC50 on record.
[
  {
    "molecule": "COCCSc1nn([C@@H]2O[C@H](COS(N)(=O)=O)[C@@H](O)[C@@H]2F)c2ncnc(N)c12",
    "IC50": "50 to 100 nM"
  },
  {
    "molecule": "Cc1occc1Sc1nn([C@@H]2O[C@H](COS(N)(=O)=O)[C@@H](O)[C@@H]2F)c2ncnc(N)c12",
    "IC50": "100 to 500 nM"
  },
  {
    "molecule": "Nc1ncnc2c1c(SCC1CC1)nn2[C@@H]1O[C@H](COS(N)(=O)=O)[C@@H](O)[C@H]1O",
    "IC50": "< 20 nM"
  },
  {
    "molecule": "Nc1ncnc2c1c(SCC1CC1)nn2[C@@H]1O[C@H](COS(N)(=O)=O)[C@@H](O)[C@@H]1F",
    "IC50": "20 to 50 nM"
  }
]

As a next step, examine the molecule that follows.
stdin: # value lookup — system recombinant human His-ATG7 enzyme (Homo sapiens (Human)), readout IC50, item Nc1ncnc2c1c(SC1CC1)nn2[C@H]1C[C@H](O)[C@@H](COS(N)(=O)=O)O1
stdout: 50 to 100 nM

###

# assayed target: recombinant human His-ATG7 enzyme (Homo sapiens (Human), UniProt O95352)
# Sequence (O95352 whole entry): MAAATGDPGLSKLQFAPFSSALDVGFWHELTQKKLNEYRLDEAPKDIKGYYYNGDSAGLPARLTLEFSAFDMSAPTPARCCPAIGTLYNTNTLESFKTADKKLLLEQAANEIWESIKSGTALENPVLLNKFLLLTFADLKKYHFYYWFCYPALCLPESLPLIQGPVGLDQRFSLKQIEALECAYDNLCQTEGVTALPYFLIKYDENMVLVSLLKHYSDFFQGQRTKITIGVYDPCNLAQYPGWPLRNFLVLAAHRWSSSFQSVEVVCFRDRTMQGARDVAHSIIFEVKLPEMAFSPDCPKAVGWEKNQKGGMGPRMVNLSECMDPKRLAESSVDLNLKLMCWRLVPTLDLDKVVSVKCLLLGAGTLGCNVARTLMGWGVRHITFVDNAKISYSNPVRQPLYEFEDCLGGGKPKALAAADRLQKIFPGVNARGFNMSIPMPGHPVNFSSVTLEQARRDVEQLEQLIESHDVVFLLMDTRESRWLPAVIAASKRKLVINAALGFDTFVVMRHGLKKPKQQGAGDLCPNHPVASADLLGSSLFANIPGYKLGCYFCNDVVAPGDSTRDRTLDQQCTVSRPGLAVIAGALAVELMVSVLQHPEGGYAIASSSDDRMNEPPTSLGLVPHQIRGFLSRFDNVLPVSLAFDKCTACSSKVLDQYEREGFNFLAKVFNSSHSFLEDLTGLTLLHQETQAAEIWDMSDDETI
# method summary: ATG7 Enzyme Assay (HTRF/FRET, ATG3-GST and Flag-Gabarap)
# Assay type: biochemical
pIC50: −log10 of the molar value.
parameter: pIC50

[
  {
    "compound": "Nc1ncnc2c1c(Sc1ccc3ccccc3n1)nn2[C@H]1C[C@H](O)[C@@H](COS(N)(=O)=O)O1 [Compound I-183]",
    "pIC50": "6.30 to 7.00"
  }
]

stdin: Need pIC50 of Nc1ncnc2c1c(C(F)(F)F)nn2[C@@H]1O[C@H](COS(N)(=O)=O)[C@@H](O)[C@H]1O [Compound I-10] , thanks.
stdout: 7.00 to 7.30

stdin: Also, CC(C#N)Sc1nn([C@@H]2O[C@H](COS(N)(=O)=O)[C@@H](O)[C@@H]2F)c2ncnc(N)c12 (mixture of isomers) [Compound I-149] please.
stdout: 7.30 to 7.70

###

# assayed target: recombinant human His-ATG7 enzyme (Homo sapiens (Human), UniProt O95352)
# method summary: ATG7 Enzyme Assay (HTRF/FRET, ATG3-GST and Flag-Gabarap)
# Type: biochemical
# test parameters: Concentration 0.123 μM; read-out: Percent Inhibition
# Procedure: Example 97: ATG7 Enzyme Assay The total volume of the ATG7 enzymatic assay is 50 μL and contains 50 mM HEPES Hemisodium (pH 7.5), 0.05% BSA, 0.01% Tween-20, 25 mM NaCl, 5 mM MgCl2, 10 μM ATP, 250 μM GSH, 5 nM ATG3-GST, 5 nM Flag-Gabarap, 100 μM TCEP and 0.15 nM recombinant human His-ATG7 enzyme. […] After incubation for 2 hours at 24° C., quantification of FRET is performed on the Pherostar™ (BMG Labtech). […]
parameter: inhibition at 0.123 µM (%)
Dear colleague, please return just the value in %, with no unit written.

The cases that follow already have their inhibition at 0.123 µM on record.
[
  {
    "molecule": "CC(C)CSc1nn([C@@H]2O[C@H](COS(N)(=O)=O)[C@@H](O)[C@H]2O)c2ncnc(N)c12 [Compound I-77]",
    "inhibition at 0.123 µM, %": 85
  },
  {
    "molecule": "Cc1ccccc1Sc1nn([C@@H]2O[C@H](COS(N)(=O)=O)[C@@H](O)[C@H]2O)c2ncnc(N)c12 [Compound I-74]",
    "inhibition at 0.123 µM, %": 61
  },
  {
    "molecule": "Nc1ncnc2c1c(SCC(F)(F)F)nn2[C@@H]1O[C@H](COS(N)(=O)=O)[C@@H](O)[C@H]1O [Compound I-83]",
    "inhibition at 0.123 µM, %": 82
  }
]

As a next step, examine the molecule that follows.
stdin: Need inhibition at 0.123 µM of COc1nn([C@@H]2O[C@H](COS(N)(=O)=O)[C@@H](O)[C@H]2O)c2ncnc(N)c12 [Compound I-1] , thanks.
stdout: 51

###

# assayed target: recombinant human His-ATG7 enzyme (Homo sapiens (Human))
# method summary: ATG7 Enzyme Assay (HTRF/FRET, ATG3-GST and Flag-Gabarap)
# Type: biochemical
# test parameters: Concentration 0.069 μM; read-out: Percent Inhibition
parameter: inhibition at 0.069 µM (%)
Dear colleague, please return just the value in %, with no unit written.

The cases that follow already have their inhibition at 0.069 µM on record.
[
  {
    "compound": "NC(=O)c1nn([C@@H]2O[C@H](COS(N)(=O)=O)[C@@H](O)[C@H]2O)c2ncnc(N)c12 [Compound I-16]",
    "value observed": 22
  },
  {
    "compound": "Nc1ncnc2c1cnn2[C@@H]1O[C@H](COS(N)(=O)=O)[C@@H](O)[C@H]1O [Compound I-48]",
    "value observed": 16
  }
]

stdin: Need inhibition at 0.069 µM of Nc1ncnc2c1c(COCc1ccccc1)nn2[C@@H]1O[C@H](COS(N)(=O)=O)[C@@H](O)[C@H]1O [Compound I-4] , thanks.
stdout: 32

stdin: Also, C#Cc1nn([C@@H]2O[C@H](COS(N)(=O)=O)[C@@H](O)[C@H]2O)c2ncnc(N)c12 [Compound I-9] please.
stdout: 52

stdin: Also, NCC#Cc1nn([C@@H]2O[C@H](COS(N)(=O)=O)[C@@H](O)[C@H]2O)c2ncnc(N)c12 [Compound I-17] please.
stdout: 10

stdin: Also, Nc1ncnc2c1c(-c1ccccc1)nn2[C@@H]1O[C@H](COS(N)(=O)=O)[C@@H](O)[C@H]1O [Compound I-49] please.
stdout: 7

stdin: Also, Nc1ncnc2c1c(C(F)(F)F)nn2[C@@H]1O[C@H](COS(N)(=O)=O)[C@@H](O)[C@H]1O [Compound I-10] please.
stdout: 48

stdin: Also, NCc1nn([C@@H]2O[C@H](COS(N)(=O)=O)[C@@H](O)[C@H]2O)c2ncnc(N)c12 [Compound I-15] please.
stdout: 16

stdin: Also, Nc1ncnc2c1c(CO)nn2[C@@H]1O[C@H](COS(N)(=O)=O)[C@@H](O)[C@H]1O [Compound I-8] please.
stdout: 32

stdin: Also, CC(C)Oc1nn([C@@H]2O[C@H](COS(N)(=O)=O)[C@@H](O)[C@H]2O)c2ncnc(N)c12 [Compound I-7] please.
stdout: 7

stdin: Also, CCc1nn([C@@H]2O[C@H](COS(N)(=O)=O)[C@@H](O)[C@H]2O)c2ncnc(N)c12 [Compound I-6] please.
stdout: 31

stdin: Also, CC(C)c1nn([C@@H]2O[C@H](COS(N)(=O)=O)[C@@H](O)[C@H]2O)c2ncnc(N)c12 [Compound I-3] please.
stdout: 24

All figures here come from patent US10865208B2.
